# Tested System: Carbonic anhydrase 4 (Bos taurus) (UniProt Q95323)
# Sequence (whole entry): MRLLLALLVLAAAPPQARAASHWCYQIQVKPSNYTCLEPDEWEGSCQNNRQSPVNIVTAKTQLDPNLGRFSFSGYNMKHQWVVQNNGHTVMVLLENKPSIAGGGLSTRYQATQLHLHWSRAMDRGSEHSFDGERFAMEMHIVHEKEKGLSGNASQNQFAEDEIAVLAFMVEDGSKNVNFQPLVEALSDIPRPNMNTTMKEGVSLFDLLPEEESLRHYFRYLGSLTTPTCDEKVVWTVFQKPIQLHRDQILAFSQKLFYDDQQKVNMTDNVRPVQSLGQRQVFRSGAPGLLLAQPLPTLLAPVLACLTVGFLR
# Measurement Description: Bovine Carbonic anhydrase IV activity using histamine as standard
Value Kind: KA (µM)
Give bare numbers, in µM.

Cc1cc(-c2ccccc2)cc(-c2ccccc2)[n+]1-c1nn[n-]n1 ... 5.24
CC(C)c1cc(-c2ccccc2)cc(-c2ccccc2)[n+]1-c1ncc[nH]1 ... 3.14
CCCCc1cc(-c2ccccc2)cc(CCCC)[n+]1-c1ncc[nH]1 ... 1.89

As a next step, examine the compound that follows.
Request: Name the reported KA value associated with the compound CCCCc1cc(-c2ccccc2)cc(CCCC)[n+]1-c1nn[n-]n1
Result: 6.8
